Biological target: MAb 400-4
Test: MAb inhibition ELISA; soluble inhibitor of MAb binding to coated hG17(1-9)-“Ala”-BSA
Where no end group is shown, it is not given here. [ ]: non-standard residue; d: D form. pGlu = O=C1CC[C@@H](C(=O)O)N1
REPORTED_METRIC: IC50 (nM)

[
  {
    "BINDER": "[pGlu]GPWLEEEEEAYGWMDFG [human glycine-extended gastrin-17 (G17-Gly)]",
    "REPORTED_METRIC": "IC50",
    "UNIT_DESCRIPTOR": "nM",
    "MEAS_VALUE": 699
  }
]

(P) EGPWLEEEEEAYGWMDF (N-terminal pyroglutamic acid (pGlu); C-terminal Phe-NH2 (amide)) [human gastrin-17 (G17), mature amidated form]
(Q) EGPWLEKEEAAYGWMDF (ends and bridges not checked) [equine G17]
Req: Between the two listed entries P and Q , which has its IC50 at the higher number? Indicate your choice by writing its label.
Resp: Q
